// values below are reported CC50 at 24 h
- protocolDetails: in vitro
- conditionContext: rat, gh3-tre-luc cells, AC50 (uM) modified / 1000
Counter-ions that a name gives are not always drawn.

COc1cc(-c2ccc(=O)[nH]n2)ccc1OC(F)F [Zardaverine] | > 50 µM
CSc1nc(NC(C)C)nc(NC(C)C)n1 [Prometryn] | > 90 µM
CS(=O)(=O)O [Methanesulfonic acid] | > 90 µM

Req: Please report the measured CC50 at 24 h for CC1=NN(c2cc(Cl)c(S(=O)(=O)O)cc2Cl)C(=O)C1N=Nc1ccc(S(=O)(=O)O)cc1 (centres unmarked) [C.I. Acid Yellow 17, disodium salt]
Resp: 92.5 µM

Req: Look up CC50 at 24 h of C1CCC2CCCCC2C1 (centres unmarked) [Decalin] and report it.
Resp: > 90 µM

Where do the numbers come from? From paper PMC6792352.
